# credit: patent US20220135687A1

molecular target: T1, human PD-L1 expressed on CHO-K1 cells (Genscript, Cat #M00543) (human, UniProt Q9NZQ7 19-290); assay: FACS, CHO-K1/human PD-L1 cells
T1 construct: also called PD-L1 cell line
T1 sequence (Q9NZQ7 19-290, one chain of several): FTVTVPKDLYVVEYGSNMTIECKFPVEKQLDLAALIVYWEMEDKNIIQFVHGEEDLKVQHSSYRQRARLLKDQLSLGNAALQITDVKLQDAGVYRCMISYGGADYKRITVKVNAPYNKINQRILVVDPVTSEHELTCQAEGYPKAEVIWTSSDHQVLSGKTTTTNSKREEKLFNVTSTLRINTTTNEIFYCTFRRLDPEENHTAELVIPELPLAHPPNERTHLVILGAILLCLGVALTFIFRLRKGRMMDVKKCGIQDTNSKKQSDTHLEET
We begin with a simple list: items and their reported Top (best-fit value).
Give the figure by itself; no unit, no explanation.

In the examples that follow, each entry is paired with its recorded Top (best-fit value).
GET /values?readout=Top (best-fit value)&item= 29A8_VH5-VL1.M1 (antibody, human IgG1, kappa, N297A, V domains shown, Humanized, hIgG1 effector-less Fc, kappa; see recheck on K24R in the .M1 light chain) VH: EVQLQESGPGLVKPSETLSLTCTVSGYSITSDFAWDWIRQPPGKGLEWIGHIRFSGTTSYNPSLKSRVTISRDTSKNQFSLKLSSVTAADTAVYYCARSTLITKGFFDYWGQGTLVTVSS VL: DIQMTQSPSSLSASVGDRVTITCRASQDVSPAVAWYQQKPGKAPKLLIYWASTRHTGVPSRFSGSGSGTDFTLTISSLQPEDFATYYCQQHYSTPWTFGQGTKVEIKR
5100

29A8_chimeric (antibody, human IgG1, kappa, N297A, V domains shown, Human IgG1 with effector-less Fc mutations, human kappa; also called chimeric 29A8H8C7) VH: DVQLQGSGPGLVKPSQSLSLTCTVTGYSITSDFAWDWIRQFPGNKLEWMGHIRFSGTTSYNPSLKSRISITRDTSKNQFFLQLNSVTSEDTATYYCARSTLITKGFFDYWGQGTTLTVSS VL: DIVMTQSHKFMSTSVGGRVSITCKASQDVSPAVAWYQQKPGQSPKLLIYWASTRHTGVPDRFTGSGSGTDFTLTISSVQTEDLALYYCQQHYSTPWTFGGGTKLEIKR , same question.
6410

53C1_chimeric (antibody, human IgG1, kappa, N297A, V domains shown, Human IgG1 with effector-less Fc mutations, human kappa; also called chimeric 53C1F3D4) VH: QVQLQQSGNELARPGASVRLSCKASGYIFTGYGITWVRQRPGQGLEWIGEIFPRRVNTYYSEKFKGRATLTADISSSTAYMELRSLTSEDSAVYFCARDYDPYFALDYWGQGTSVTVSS VL: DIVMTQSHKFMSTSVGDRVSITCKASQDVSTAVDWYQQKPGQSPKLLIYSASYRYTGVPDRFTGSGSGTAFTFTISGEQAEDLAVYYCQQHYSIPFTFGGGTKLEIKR , same question.
6230

Moving on to another binder below.
GET /values?readout=Top (best-fit value)&item= 53C1_VH3-VL1.M1 (antibody, human IgG1, kappa, N297A, V domains shown, Humanized, hIgG1 effector-less Fc, kappa; see recheck on K24R in the .M1 light chain) VH: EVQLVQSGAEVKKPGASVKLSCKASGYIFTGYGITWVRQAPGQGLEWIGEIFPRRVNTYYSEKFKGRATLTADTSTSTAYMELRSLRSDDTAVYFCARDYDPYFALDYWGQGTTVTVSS VL: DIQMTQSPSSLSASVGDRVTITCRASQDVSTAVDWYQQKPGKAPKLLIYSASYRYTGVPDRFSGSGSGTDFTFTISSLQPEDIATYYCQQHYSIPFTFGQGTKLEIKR
6410
